Assay: Clearance at 0.5 mg/kg i.v.
Type: ADME, organism-based
Set-up: dose 0.5 mg/kg, route intravenous
Settings: in vivo, iv
# note: boundary value 40 mL/min/kg maps to FALSE; clearance below it maps to TRUE

1. CC(=O)Nc1ccc(-c2nn(C)/c(=N/C3CCCC(O)C3)s2)cc1 (trans isomer); TRUE
2. Cn1nc(-c2ccc(C(=O)NC(C)(C)CO)cc2)s/c1=N\C1CCCC(O)C1 (configuration not stated); TRUE
3. Cn1nc(-c2ccc(C(N)=O)cc2)s/c1=N\C1CCCC(O)C1 (stereo in doubt; cis); TRUE
4. Cn1nc(-c2ccc(C(N)=O)cc2)s/c1=N\C1CCCCC1O (stereo in doubt; trans); TRUE
5. CC(=O)Nc1ccc(-c2nn(C)/c(=N/C3CCCCC3)s2)cc1; FALSE
6. Cn1nc(-c2ccc(S(C)(=O)=O)cc2)s/c1=N\C1CCCC(O)C1 (stereo in doubt); TRUE
7. CN1CCN(C(=O)c2ccc(-c3nn(C)/c(=N/C4CCCCC4)s3)cc2)CC1; FALSE
8. Cn1nc(-c2ccc(S(C)(=O)=O)cc2)s/c1=N\c1cccc(C(=O)O)c1; TRUE
9. Cn1nc(-c2ccc(C(N)=O)cc2)s/c1=N\C1CCCCC1; FALSE
10. Cn1nc(-c2ccc(C(N)=O)cc2)s/c1=N\C1CCC(O)CC1 (configuration not stated); FALSE
11. Cn1nc(-c2ccc(Cl)cc2)s/c1=N\c1ccc(F)c(C(=O)O)c1; TRUE
12. Cn1nc(-c2cccc(C#N)c2)s/c1=N\c1cccc(C(=O)O)c1; TRUE

====

Assay: Solubility at pH 7.4
Format: physicochemical
Details: buffer, read-out: Solubility
Reported solubility values follow for various compounds
recorded metric: solubility (mg/mL)

1. Cn1nc(-c2ccc(C(N)=O)cc2)s/c1=N\C1CCCCC1; 0.004
2. Cn1nc(-c2ccc(Cl)cc2)s/c1=N\c1ccc(F)c(C(=O)O)c1; 0.145
3. CC(=O)Nc1ccc(-c2nn(C)/c(=N/C3CCCC(O)C3)s2)cc1 (trans isomer); 0.35
4. Cn1nc(-c2ccc(S(C)(=O)=O)cc2)s/c1=N\c1cccc(C(=O)O)c1; 0.37
5. Cn1nc(-c2cccc(C#N)c2)s/c1=N\c1cccc(C(=O)O)c1; 0.295
6. Cn1nc(-c2ccc(C(=O)NC(C)(C)CO)cc2)s/c1=N\C1CCCC(O)C1 (centres undefined); 0.058
7. CC(=O)Nc1ccc(-c2nn(C)/c(=N/C3CCCCC3)s2)cc1; 0.008
8. Cn1nc(-c2ccc(S(C)(=O)=O)cc2)s/c1=N\C1CCCC(O)C1 (stereo in doubt); 0.135
9. CN1CCN(C(=O)c2ccc(-c3nn(C)/c(=N/C4CCCCC4)s3)cc2)CC1; 0.35

====

Experiment: Reduction in Clearance when compared with compound 1
Assay type: ADME, organism-based
Conditions: in vivo
recorded metric: CL_Ratio (%)

1) Cn1nc(-c2ccc(C(=O)NC(C)(C)CO)cc2)s/c1=N\C1CCCC(O)C1 (stereo unspecified); 86
2) CC(=O)Nc1ccc(-c2nn(C)/c(=N/C3CCCC(O)C3)s2)cc1 (trans isomer); 92
3) CC(=O)Nc1ccc(-c2nn(C)/c(=N/C3CCCCC3)s2)cc1; 58
4) CN1CCN(C(=O)c2ccc(-c3nn(C)/c(=N/C4CCCCC4)s3)cc2)CC1; 75
5) Cn1nc(-c2ccc(S(C)(=O)=O)cc2)s/c1=N\C1CCCC(O)C1 (stereo in doubt; 21a 9(R,R)); 91
6) Cn1nc(-c2ccc(S(C)(=O)=O)cc2)s/c1=N\C1CCCC(O)C1 (stereo in doubt); 93

====

Reported bioavailability values follow for various compounds
Experiment: Oral bioavailability (dose 2.5 mg/kg)
Assay type: ADME, organism-based
Conditions: eutheria, in vivo
recorded metric: bioavailability (%)

1) Cn1nc(-c2ccc(C(N)=O)cc2)s/c1=N\C1CCC(O)CC1 (stereo not given); 7
2) Cn1nc(-c2cccc(C#N)c2)s/c1=N\c1cccc(C(=O)O)c1; 37
3) Cn1nc(-c2ccc(C(=O)NC(C)(C)CO)cc2)s/c1=N\C1CCCC(O)C1 (stereo not given); 63
4) Cn1nc(-c2ccc(S(C)(=O)=O)cc2)s/c1=N\C1CCCC(O)C1 (stereo in doubt); 100
5) Cn1nc(-c2ccc(S(C)(=O)=O)cc2)s/c1=N\c1cccc(C(=O)O)c1; 29.3
6) CN1CCN(C(=O)c2ccc(-c3nn(C)/c(=N/C4CCCCC4)s3)cc2)CC1; 85
7) CC(=O)Nc1ccc(-c2nn(C)/c(=N/C3CCCCC3)s2)cc1; 19.6
8) CC(=O)Nc1ccc(-c2nn(C)/c(=N/C3CCCC(O)C3)s2)cc1 (trans isomer); 76
9) Cn1nc(-c2ccc(C(N)=O)cc2)s/c1=N\C1CCCCC1O (stereo in doubt; trans); 24.7
10) Cn1nc(-c2ccc(Cl)cc2)s/c1=N\c1ccc(F)c(C(=O)O)c1; 49.3

====

Reported CL_Ratio values follow for various compounds
Experiment: Reduction in clearance when compared with compound 1
Format: ADME, organism-based
Details: in vivo
recorded metric: CL_Ratio (%)

1. Cn1nc(-c2ccc(C(N)=O)cc2)s/c1=N\C1CCC(O)CC1 (centres undefined); 62
2. Cn1nc(-c2ccc(C(N)=O)cc2)s/c1=N\C1CCCC(O)C1 (stereo in doubt; cis); 81
3. Cn1nc(-c2ccc(C(N)=O)cc2)s/c1=N\C1CCCCC1O (stereo in doubt; trans); 79
4. Cn1nc(-c2ccc(C(N)=O)cc2)s/c1=N\C1CCCC(O)C1 (stereo in doubt; trans); 67
